Test system: NCI/ADR-RES ovarian
measurement-description: NCI tumour cell line growth inhibition, 48 h
Task for the reader: assign each of the following compounds its reported GI50.

Lab book: GI50 of CCCn1c(N)c(C(=O)N/N=C(/C)c2cc3cccc(OC)c3o2)sc1=S noted as 18.6 µM

Entry under test: Cn1cc(C2=C(c3cn(C)c4cc(C(N)=O)ccc34)C(=O)NC2=O)c2ccccc21 . Its GI50 was 1.16 µM

Kindly note the recorded GI50 for CCN(CC)CCOc1ccc(/C=C2\CC3C4CC=C5C[C@@H](O)CC[C@]5(C)C4CC[C@]3(C)C2=O)cc1OC (stereo not given in full) , which is 16.2 µM

Notebook: COc1ccc2[nH]cc(-c3nc(-c4c[nH]c5ncccc45)cs3)c2c1 , GI50 read as 3.75 µM

According to the records, this compound COc1cccc2c1C(=O)c1c(O)c3c(c(O)c1C2=O)CC(O)(/C(C)=N/NC(=O)CCC(=O)N/N=C(\C)C1(O)Cc2c(O)c4c(c(O)c2C(OC2CC(N)C(O)C(C)O2)C1)C(=O)c1c(OC)cccc1C4=O)CC3OC1CC(N)C(O)C(C)O1 (stereo not given) displays GI50 of 13.5 µM

# GI50 (compound: Cc1nc2cnc(N)c(C#Cc3cncc(C(=O)Nc4ccc(CN5CCN(C)CC5)c(C(F)(F)F)c4)c3)c2nc1C ) is 7.56 µM

So for CC12CCC3C(CCC4=CC(O)CCC43C=O)C1(O)CCC2c1ccc(=O)oc1 (stereo not given) , the logged GI50 turned out to be 0.05 µM

get_value(item= COc1ccc(-c2oc(=O)ccc2-c2cc(OC)c(OC)c(OC)c2)cc1F , readout=GI50) returns 11 µM

# GI50 (compound: COc1cc(C2c3cc4c(cc3C(O)C(CO)C2CO)OCO4)cc(OC)c1OC (stereo not given) ) is 21.5 µM

GI50 recorded for this compound, COc1cc(-c2nn(-c3cccc(NC(=O)Nc4ccc(Cl)c(Cl)c4)c3)cc2-c2ccncc2)ccc1Cl , is 0.99 µM

The measurements presented in this section are drawn from PubChem BioAssay (NCI).
